Values compiled from PubChem BioAssay (NCI).

- Tested on: SNB-19 CNS
- protocolSummary: NCI-60 one-dose screen, 48 h (100 = growth as untreated, 0 = no growth, -100 = all killed)
- testContext: 10 µM unless noted
- Method: Growth inhibition of the SNB-19 human tumor cell line is measured as a screen for anti-cancer activity. Cells are grown in 96 well plates and exposed to the test compound for 48 hours. Compounds are tested at a single concentration, which is 10^-5 M for most compounds. The reported endpoint is percent growth (GI% or GIPRCNT), where numbers from 0 - 100% represent growth inhibition, and numbers from -100% - 0 represent cell death. For example, a value of 40 represents 60% growth inhibition. […]
Compounds without any hit were thinned out: in the full panel of roughly 83,000, 20% have a hit.
I would appreciate it if you labelled entries Satisfied when growth is 70% or higher, otherwise Not satisfied.

Below, 5 compounds whose answers are already recorded.
>>> category("O=C(CN1C(=O)S/C(=C\\c2ccccc2)C1=O)Nc1ncc(Cc2ccccc2Cl)s1")
"Satisfied"
>>> category("CCN(CC)CC(O)COc1c(Br)c(Br)c(Br)c2c1OC(C)(C)C2 (centres undefined)")
"Satisfied"
>>> category("C=C1CC[C@@H]2[C@](C)(COC(C)=O)[C@H](OC(C)=O)CC[C@@]2(C)[C@@H]1CC(Nc1ccc(S(=O)(=O)Nc2ncccn2)cc1)C1=CCOC1=O (some centres undefined)")
"Not satisfied"
>>> category("Clc1ccc2c(c1)C(c1c[nH]c3ccccc13)(c1c[nH]c3ccccc13)CCO2")
"Satisfied"
>>> category("CCOC(=O)C1=C(C)NC(=O)NC1c1c(Cl)n(CCCl)c2ccccc12 (centres undefined)")
"Satisfied"

Threshold query (growth >= 70%) on O=C(/C=C/c1cccc(Cl)c1)c1cccc(OCCCOc2cccc(C(=O)/C=C/c3cccc(Cl)c3)c2)c1
Satisfied

Threshold query (growth >= 70%) on CN(C)c1ccc(-c2c(C#N)c(N)nn2C(=O)c2ccc(NC(=O)c3ccccn3)cc2)cc1
Satisfied

Threshold query (growth >= 70%) on O=S(=O)(Nc1ccc(Cl)c(C(F)(F)F)c1)c1ccc(-c2cnc(C3CC3)o2)cc1
Not satisfied

Threshold query (growth >= 70%) on O=c1[nH]c(Cc2nc3ccccc3s2)nc2cc(Br)ccc12
Satisfied

Threshold query (growth >= 70%) on c1cc2c(ccc3[nH]c(-c4ccc5[nH]ncc5c4)c4c(c32)CCCC4)n1
Not satisfied

Threshold query (growth >= 70%) on COc1ccc(/C=C/C(=O)c2cccc(OCCCCOc3cccc(C(=O)/C=C/c4ccc(OC)c(OC)c4)c3)c2)cc1OC
Satisfied

Threshold query (growth >= 70%) on Fc1cccc(Oc2ccc(Nc3ncnc4ccc(OCCCN5CCOCC5)cc34)cc2Cl)c1
Not satisfied

Threshold query (growth >= 70%) on COc1ccc(/C=C/C(=O)c2ccc(Nc3ccnc4cc(Cl)ccc34)cc2)cc1
Satisfied

Threshold query (growth >= 70%) on Cn1ccnc1C(=O)/C=C/c1ccc(CC(=O)Nc2cc(C(F)(F)F)cc(C(F)(F)F)c2)cc1
Not satisfied

Threshold query (growth >= 70%) on CS(=O)(=O)Nc1cc(-c2ccc3ncnc(Nc4ccc5c(cnn5Cc5cccc(F)c5)c4)c3c2)cnc1Cl
Not satisfied

Threshold query (growth >= 70%) on COCCOc1cc2ncnc(N3CCN(c4ncc(S(=O)(=O)N5CCCCC5)cn4)CC3)c2cc1OCCOC
Satisfied

Threshold query (growth >= 70%) on C#CCOC(=O)/C=C/c1cn(-c2ccccc2)nc1-c1ccc(OC)cc1
Satisfied

Threshold query (growth >= 70%) on C#CCOc1cccc(Nc2ncnc3cc(NC(=O)C=C)ccc23)c1
Not satisfied

Threshold query (growth >= 70%) on Cc1ccc(Nn2c(SCC(=O)Nc3nc(-c4ccccc4)cs3)nc(C)c2C)cc1
Satisfied
